Value source: patent US11279697B2

This document collects pIC50 values reported for human FGFR4 protein (460-802 amino acids) (Homo sapiens (Human), UniProt P22455).
Remember, pIC50 is on a log scale: it is -log10 of the molar concentration.

Given the entry C=CC(=O)Nc1cnn(C)c1-c1n[nH]c2c1CC[C@@H](c1cc(OC)cc(OC)c1Cl)C2 (single isomer, unassigned) [Compound 311-P2] , report its measured pIC50.
6.89

Given the entry C=CC(=O)Nc1cnn(C)c1-c1n[nH]c2c1CC[C@@H](c1cc(OC)cc(OC)c1Cl)C2 (single isomer, unassigned) [Compound 311-P1] , report its measured pIC50.
6.69

Given the entry C=CC(=O)Nc1cnn(C)c1-c1n[nH]c2c1CC[C@@H](c1c(F)c(OC)cc(OC)c1Cl)C2 (single isomer, unassigned) [Compound 303-P2] , report its measured pIC50.
8.26

Given the entry C=CC(=O)Nc1cnn(C)c1-c1n[nH]c2c1CC[C@@H](c1cc(OC)cc(OC)c1F)C2 (single isomer, unassigned) [Compound 302-P2] , report its measured pIC50.
7.45

Given the entry C=CC(=O)Nc1cc(Cl)ccc1-c1n[nH]c2c1CC[C@@H](c1c(Cl)c(OC)cc(OC)c1Cl)C2 (single isomer, unassigned) [Compound 289-P1] , report its measured pIC50.
6.96

Given the entry C=CC(=O)Nc1cnn(C)c1-c1n[nH]c2c1CC[C@@H](c1c(F)c(OC)cc(OC)c1F)C2 (single isomer, unassigned) [Compound 281-P1] , report its measured pIC50.
8.24
